Below, each entry is listed alongside its reported Primary QIM CellNb.
# System: Raw264.7 cells
# test details: Cell number (CellNb) from image analysis of the phenotypic cell-based assay
# protocol conditions: primary screen, 20 μM
Answer using only a numeral; do not append any unit.

Nc1nonc1NC(=O)CSc1cccc2ccccc12	146.5
COc1c(O)cc(/C=N/NC(=O)c2ccncc2)cc1Br	388.3
Cc1ccc(NC(=O)c2ccc([N+](=O)[O-])cc2Cl)cc1C	281.8
O=C(Oc1cccc2ncccc12)c1ccccc1F	218.0
NNC(=O)c1ccc(COc2ccccc2Cl)o1	540.8
COc1ccc(OC)c(/C=N/NC(=O)c2ccncc2)c1	321.8
O=C(NCCOc1ccccc1Cl)c1cc([N+](=O)[O-])cc([N+](=O)[O-])c1	333.3
CCc1ccc(/C=N/NC(=O)c2ccncc2)cc1	334.0
COc1cccc(/C=N/NC(=O)c2ccncc2)c1O	255.5
C=CCN1C(=O)/C(=N/NC(=O)c2ccc(F)cc2)c2ccccc21	183.0

If you can, please state the reported Primary QIM CellNb value of O=C(N/N=C/c1ccc(O)c([N+](=O)[O-])c1)c1ccncc1 .
366.0

If you can, please state the reported Primary QIM CellNb value of Cc1cc(/C=C(/C#N)C(=O)Nc2cccc(Br)c2)c(C)n1-c1ccc(C(=O)O)cc1 .
162.0

---

# Test system: Raw264.7 cells
# protocol conditions: mouse, 5 days, 20 uM
Below, each entry is listed alongside its reported QIM Confirm CellNb 20 uM.
Answer using only a numeral; do not append any unit.

Solved cases (2 shown):
O=C(N/N=C/c1ccccc1Cl)c1ccncc1	80.2
O=C(N/N=C\c1cc2c(s1)CCCCC2)c1ccncc1	79.6

If you can, please state the reported QIM Confirm CellNb 20 uM value of O=C(Nc1ccccc1)Nc1ccc(Br)c(Cl)c1 .
46.9

If you can, please state the reported QIM Confirm CellNb 20 uM value of Cc1cccc(/C=N/NC(=O)c2ccncc2)c1 .
72.4

---

# System: Raw264.7 cells
# test details: Cell number (CellNb) from image analysis of the phenotypic cell-based assay
# protocol conditions: primary screen, 20 μM
Below, each entry is listed alongside its reported Primary QIM CellNb.
Answer using only a numeral; do not append any unit.

O=C(COc1ccccc1-c1ccccc1)N/N=C\c1ccc([N+](=O)[O-])s1	134.3
CCOc1ccc2ccccc2c1/C=N/NC(=O)c1ccncc1	393.8
O=C(N/N=C/c1ccc([N+](=O)[O-])s1)C1CCN(Cc2ccc(Br)cc2)CC1	110.5

If you can, please state the reported Primary QIM CellNb value of Cc1cccc(NC(=O)c2c(NC(=O)c3ccccc3Cl)sc3c2CCC3)c1 .
234.0

---

# System: Raw264.7 cells
# test details: Cell number (CellNb) from image analysis of the phenotypic cell-based assay
# label = 1 if QIM Confirm CellNb 20 uM >= 300 else -1

Answered cases to consult:
O=C(NCCOCc1ccccc1)c1cc([N+](=O)[O-])cc([N+](=O)[O-])c1 [IPK 000 027 91]	1
CCOC(=O)c1c(CSc2ccccc2)n(Cc2ccccc2)c2ccc(O)c(CN(C)C)c12 [IPK 000 016 05]	-1
O=C(N/N=C/c1ccco1)c1ccncc1 [IPK 000 013 67]	1

Is QIM Confirm CellNb 20 uM at least 300? Consider C/C(=N\NC(N)=S)c1ccc(Cl)cc1 [IPK 000 002 17]
-1

Is QIM Confirm CellNb 20 uM at least 300? Consider COc1cccc(OCCNC(=O)c2cc([N+](=O)[O-])cc([N+](=O)[O-])c2)c1 [IPK 000 027 77]
1

Is QIM Confirm CellNb 20 uM at least 300? Consider N#CC(C#N)=NNc1ccc(I)cc1 [IPK 000 007 31]
-1

Is QIM Confirm CellNb 20 uM at least 300? Consider COc1ccccc1OCCNC(=O)c1cc([N+](=O)[O-])cc([N+](=O)[O-])c1 [IPK 000 027 74]
1

---

# test details: in vitro
# protocol conditions: human
measured parameter: selectivity ratio

If you can, please state the reported selectivity ratio value of Cc1cccn2c(=O)c(C=O)c(Nc3cccc(Cl)c3)nc12 .
> 50

---

Below, each entry is listed alongside its reported inhibition at 0.2 µM.
# System: M. tuberculosis H37Rv-GFP
# test details: microbe, parasite or virus in culture
# Format: cell-based, Mycobacterium tuberculosis
# protocol conditions: Mycobacterium tuberculosis, H37RV, Macrophage; confirmation, 0.2 uM, intracellular; read-out: QIM Confirm % Inhibition 0.2 uM
Write the answer as a number in %, unit excluded.

O=C(N/N=C/c1cc(Br)cc(Br)c1O)c1ccncc1 [IPK 000 009 33]	8.5
O=C(NCCOc1ccccc1Cl)c1cc([N+](=O)[O-])cc([N+](=O)[O-])c1 [IPK 000 027 72]	29.3
Clc1ccc(Nc2nc3nonc3nc2Nc2ccc(Cl)c(Cl)c2)cc1Cl [IPK 000 003 89]	20.1

If you can, please state the reported inhibition at 0.2 µM value of CCOC(=O)/N=C(\NC(C)=O)c1cccc(Cl)c1 [IPK 000 033 61] .
16.2

If you can, please state the reported inhibition at 0.2 µM value of CC1=NN(C(=O)c2ccncc2)C(O)(C(F)(F)F)C1 (centres unmarked) [IPK 000 009 78] .
17

If you can, please state the reported inhibition at 0.2 µM value of O=C1c2ccccc2-c2nc3nonc3nc21 [IPK 000 011 19] .
9.7

If you can, please state the reported inhibition at 0.2 µM value of N#Cc1ccccc1NC(=O)CSc1nc2ccccc2s1 [IPK 000 018 97] .
7.3

---

# Tested on: Raw264.7 cells
# protocol conditions: mouse, 5 days, 20 μM
Threshold check on Primary QIM CellNb: strictly below 70 is Met; on or above 70 is Not met.

Answered cases to consult:
O=C(N/N=C/C=C/c1ccc([N+](=O)[O-])cc1)c1ccncc1	Not met
Cc1cccc(NC(=O)c2c(NC(=O)c3ccccc3Cl)sc3c2CCC3)c1	Met

Is 70 strictly greater than the compound's reported Primary QIM CellNb? compound: O=C(Nc1sc2c(c1C(=O)Nc1ccccc1)CCC2)c1ccccc1Br
Met

Is 70 strictly greater than the compound's reported Primary QIM CellNb? compound: O=C(NC1CCCCC1)c1ccc(COc2cc(Cl)ccc2Cl)o1
Met

Is 70 strictly greater than the compound's reported Primary QIM CellNb? compound: COc1ccccc1/C=N/NC(=O)c1ccncc1
Not met

Is 70 strictly greater than the compound's reported Primary QIM CellNb? compound: O=[N+]([O-])c1cc(/C=N/c2ccc(S(=O)(=O)NC3NC=CS3)cc2)c2c(c1)COCO2 (stereo not drawn)
Met

Is 70 strictly greater than the compound's reported Primary QIM CellNb? compound: CN1C/C(=C\c2ccccc2Br)C(=O)/C(=C/c2ccccc2Br)C1
Met

Is 70 strictly greater than the compound's reported Primary QIM CellNb? compound: CCOc1nnc(NS(=O)(=O)c2ccc(/N=C/c3ccccc3O)cc2)s1
Met

---

# Tested on: M. tuberculosis H37Rv-GFP
# test details: microbe, parasite or virus in culture
# Format: cell-based, Mycobacterium tuberculosis
# protocol conditions: Mycobacterium tuberculosis, H37RV, Macrophage; confirmation, 0.2 uM, intracellular; read-out: QIM Confirm % Inhibition 0.2 uM
Below, each entry is listed alongside its reported inhibition at 0.2 µM.
Quick note: unit goes after the number.

Solved cases (2 shown):
O=C(NCc1ccc2c(c1)OCO2)c1cc([N+](=O)[O-])cc([N+](=O)[O-])c1	83%
Clc1ccc(Nc2nc3nonc3nc2Nc2ccc(Cl)cc2)cc1	2.2%

If you can, please state the reported inhibition at 0.2 µM value of O=C(N/N=C/c1cccc([N+](=O)[O-])c1)c1ccncc1 .
74.5%

If you can, please state the reported inhibition at 0.2 µM value of CCCSc1nnc(-c2ccc(Cl)cc2Cl)o1 .
50.4%

If you can, please state the reported inhibition at 0.2 µM value of CN1CCN(c2nc(Nc3ccc(OC(F)(F)F)cc3)nc(OCC(F)(F)F)n2)CC1 .
2.7%

If you can, please state the reported inhibition at 0.2 µM value of Fc1ccc(Nc2nc3nonc3nc2Nc2ccc(F)cc2)cc1 .
2.9%

If you can, please state the reported inhibition at 0.2 µM value of CCc1nnc(NS(=O)(=O)c2ccc(N)cc2)s1 .
5.1%

If you can, please state the reported inhibition at 0.2 µM value of Cc1nn(-c2ccccc2)c(Cl)c1/C=N/NC(=O)c1ccccn1 .
12.7%

If you can, please state the reported inhibition at 0.2 µM value of O=[N+]([O-])c1ccc(/C=N/c2ccccc2O)cc1 .
20.4%

---

Below, each entry is listed alongside its reported QIM Confirm CellNb 0.2 uM.
# Test system: Raw264.7 cells
# test details: Cell number (CellNb) from image analysis of the phenotypic cell-based assay
# protocol conditions: confirmation, 0.2 uM

Solved cases (4 shown):
Cc1nn(-c2ccccc2)c(Cl)c1/C=N/NC(=O)c1ccccn1	190.0
CC1=NN(C(=O)c2ccncc2)C(O)(C(F)(F)F)C1 (centres unmarked)	325.5
O=C(N/N=C/c1ccccc1F)c1ccncc1	476.5
O=C(N/N=C/c1ccccc1O)c1ccncc1	437.4

Let us move to another entry and its QIM Confirm CellNb 0.2 uM.
If you can, please state the reported QIM Confirm CellNb 0.2 uM value of CCCCc1ccc(/C=N/NC(=O)c2ccncc2)cc1 .
405.8
